test system: TTR; test: TTR editing in primary human hepatocytes treated with LNP formulated Spy Cas9 mRNA (SEQ ID NO: 2) and sgRNAs (Table 16); format: cell-based; settings: LNP formulated Spy Cas9 mRNA (SEQ ID NO: 2) and sgRNA, 72 hours
Strand notation (5' to 3'): a small letter for the sugar, then the base; units joined by * are phosphorothioate-linked, units joined directly phosphodiester-linked; [ ] holds rarer units or linkages, { } end groups; capitals alone tell only the bases. m = 2'-O-methyl; r = 2'-OH (RNA)
measured_quantity: 12.5 ng mRNA, 3.9 nM sgRNA Avg % Edit (%)
Answers are plain numbers, in %.

Please look at this molecule and report its 12.5 ng mRNA, 3.9 nM sgRNA Avg % Edit: G000485: TTR sgRNA modified sequence, Human, SEQ ID No. 92; guide sequence of CR003336 (nucleic acid) guide: mC*mC*mU*rCrCrUrCrUrGrCrCrUrUrGrCrUrGrGrArCrGrUrUrUrUrArGrAmGmCmUmAmGmAmAmAmUmAmGmCrArArGrUrUrArArArArUrArArGrGrCrUrArGrUrCrCrGrUrUrArUrCrAmAmCmUmUmGmAmAmAmAmAmGmUmGmGmCmAmCmCmGmAmGmUmCmGmGmUmGmCmU*mU*mU*mU 14.23

Origin of measurements: patent US11795460B2
